- EXPERIMENT: Oral bioavailability in rat
- PARTICULARS: in vivo
Counter-ions that a name gives are not always drawn.
Each entry below lists one item and its recorded bioavailability value.

[[record]]
molecule = "COc1cc(Nc2ncc3c(=O)n(-c4c(Cl)cccc4Cl)ccc3n2)ccc1N1CCNCC1 [Example 13, HCl]"
measured_result = "> 25%"

[[record]]
molecule = "CNCc1cc(Nc2ncc3c(=O)n(-c4c(Cl)cccc4Cl)ccc3n2)ccc1N1CCOCC1 [Example 20]"
measured_result = "> 25%"


Input Cc1cc(Nc2ncc3c(=O)n(-c4c(Cl)cccc4Cl)ccc3n2)ccc1N1CCNCC1 [Example 7] . Output bioavailability: > 25%

----------
- EXPERIMENT: Rat hepatocyte assay CLint
- Format: in vitro ADME
- PARTICULARS: hepatocytes
Where a name gives a salt, the structure may show the parent alone.
Each entry below lists one item and its recorded hepatocyte CLint value.

[[record]]
compound = "O=c1c2cnc(Nc3ccc(N4CCNCC4)c(CO)c3)nc2ccn1-c1c(Cl)cccc1Cl"
measured_result = "< 40 µL/min/1e6 cells"


Input Cc1cc(Nc2ncc3c(=O)n(-c4c(Cl)cccc4Cl)ccc3n2)ccc1N1CCNCC1 . Output hepatocyte CLint: < 40 µL/min/1e6 cells

Input COc1cc(Nc2ncc3c(=O)n(-c4c(Cl)cccc4Cl)ccc3n2)ccc1N1CCNCC1 [Example 13, HCl] . Output hepatocyte CLint: < 40 µL/min/1e6 cells

Input CN1CCN(c2ccc(Nc3ncc4c(=O)n(-c5c(Cl)cccc5Cl)ccc4n3)cc2CO)CC1 . Output hepatocyte CLint: < 40 µL/min/1e6 cells

Input CNCc1cc(Nc2ncc3c(=O)n(-c4c(Cl)cccc4Cl)ccc3n2)ccc1N1CCOCC1 . Output hepatocyte CLint: < 40 µL/min/1e6 cells

----------
- Test system: phospho-cdc2 (Tyr15) in HT-29 cells
- EXPERIMENT: Effect on phosphorylation of cdc2 at Tyr15 in HT-29 cells (PathScan ELISA)
- Format: cell-based
- PARTICULARS: Homo sapiens, HT-29, 8 h; HT29 cells, eight hours incubation; read-out: HT29 pCDC2 activity
QUANTITY KIND: IC50

[[record]]
compound = "CN1CCN(C(=O)c2ccc(Nc3ncc4c(=O)n(-c5c(Cl)cccc5Cl)ccc4n3)cc2)CC1 [Example 32]"
measured_result = "100 to 1000 nM"

[[record]]
compound = "CC(C)N1CCN(c2ccc(Nc3ncc4c(=O)n(-c5c(Cl)cccc5Cl)ccc4n3)cc2)CC1 [Example 17]"
measured_result = "100 to 1000 nM"

[[record]]
compound = "O=c1c2cnc(Nc3ccc(N4CCNCC4)cc3)nc2ccn1-c1c(Cl)cccc1Cl [Example 1]"
measured_result = "≥ 1000 nM"

[[record]]
compound = "NCc1cccc(Nc2ncc3c(=O)n(-c4c(Cl)cccc4Cl)ccc3n2)c1 [Example 25]"
measured_result = "≥ 1000 nM"

[[record]]
compound = "O=c1c2cnc(Nc3ccc(N4CCNCC4)c(Cl)c3)nc2ccn1-c1c(Cl)cccc1Cl [Example 27]"
measured_result = "100 to 1000 nM"

[[record]]
compound = "O=c1c2cnc(Nc3ccc(N4CCOCC4)cc3)nc2ccn1-c1c(Cl)cccc1Cl [Example 19]"
measured_result = "≥ 1000 nM"


Input CN1CCN(c2cccc(Nc3ncc4c(=O)n(-c5c(Cl)cccc5Cl)ccc4n3)c2)CC1 [Example 26] . Output IC50: ≥ 1000 nM

Input CNCc1cc(Nc2ncc3c(=O)n(-c4c(Cl)cccc4Cl)ccc3n2)ccc1N1CCOCC1 [Example 20] . Output IC50: ≤ 100 nM

Input CN1CCN(c2ccc(Nc3ncc4c(=O)n(-c5c(Cl)cccc5Cl)ccc4n3)cn2)CC1 [Example 31] . Output IC50: 100 to 1000 nM

----------
- System: phospho-cdc2 (Tyr15) in HT-29 cells
- EXPERIMENT: Effect on phosphorylation of cdc2 at Tyr15 in HT-29 cells (PathScan ELISA)
- Format: cell-based
- PARTICULARS: Homo sapiens, HT-29, 8 h; HT29 cells, eight hours incubation; read-out: HT29 pCDC2 activity
Where a name gives a salt, the structure may show the parent alone.
Each entry below lists one item and its recorded IC50 value.

Solved cases (5 shown):
[[record]]
molecule = "CN1CCN(c2ccc(Nc3ncc4c(=O)n(-c5c(Cl)cccc5Cl)ccc4n3)cc2CO)CC1"
quantity_kind = "IC50"
measured_result = "100 to 1000 nM"

[[record]]
molecule = "CN1CCN(c2ccc(Nc3ncc4c(=O)n(-c5c(Cl)cccc5Cl)ccc4n3)cc2)CC1"
quantity_kind = "IC50"
measured_result = "100 to 1000 nM"

[[record]]
molecule = "CN1CCC(c2ccc(Nc3ncc4c(=O)n(-c5c(Cl)cccc5Cl)ccc4n3)cc2)CC1 [Example 10, HCl]"
quantity_kind = "IC50"
measured_result = "100 to 1000 nM"

[[record]]
molecule = "Cc1cc(Nc2ncc3c(=O)n(-c4ccccc4Cl)ccc3n2)ccc1N1CCNCC1"
quantity_kind = "IC50"
measured_result = "100 to 1000 nM"

[[record]]
molecule = "O=c1c2cnc(Nc3ccc(N4CCNCC4)cc3)nc2c(-c2cccnc2)cn1-c1c(Cl)cccc1Cl"
quantity_kind = "IC50"
measured_result = "≤ 100 nM"


Input NCC#Cc1cn(-c2c(Cl)cccc2Cl)c(=O)c2cnc(Nc3ccc(N4CCOCC4)cc3)nc12 . Output IC50: ≤ 100 nM

Input O=c1c2cnc(Nc3ccc(N4CCNCC4)c(CO)c3)nc2ccn1-c1c(Cl)cccc1Cl . Output IC50: ≤ 100 nM

Input O=c1c2cnc(Nc3ccc(N4CCNCC4)c(F)c3)nc2ccn1-c1c(Cl)cccc1Cl . Output IC50: ≤ 100 nM

Input O=c1c2cnc(Nc3cc(F)c(N4CCNCC4)c(F)c3)nc2ccn1-c1c(Cl)cccc1Cl . Output IC50: ≥ 1000 nM

Input CN(C)CCc1ccc(Nc2ncc3c(=O)n(-c4c(Cl)cccc4Cl)ccc3n2)cc1 [Example 11, HCl] . Output IC50: 100 to 1000 nM

Input COc1cc(Nc2ncc3c(=O)n(-c4c(Cl)cccc4Cl)ccc3n2)ccc1N1CCN(C)CC1 [Example 12, HCl] . Output IC50: ≤ 100 nM

Input Cc1cn(-c2c(Cl)cccc2Cl)c(=O)c2cnc(Nc3ccc(N4CCNCC4)cc3)nc12 . Output IC50: 100 to 1000 nM

Input COc1cc(Nc2ncc3c(=O)n(-c4c(Cl)cccc4Cl)ccc3n2)ccc1N1CCNCC1 [Example 13, HCl] . Output IC50: ≤ 100 nM

Input O=c1c2cnc(Nc3ccc(N4CCN(CCO)CC4)cc3)nc2ccn1-c1c(Cl)cccc1Cl . Output IC50: ≤ 100 nM

Input CNCCOc1ccc(Nc2ncc3c(=O)n(-c4c(Cl)cccc4Cl)ccc3n2)cc1 [Example 16, HCl] . Output IC50: 100 to 1000 nM

Input O=c1c2cnc(Nc3ccc(N4CCNCC4)cc3)nc2c(Br)cn1-c1c(Cl)cccc1Cl . Output IC50: 100 to 1000 nM

Input O=c1c2cnc(Nc3ccc(N4CCS(=O)(=O)CC4)cc3)nc2ccn1-c1c(Cl)cccc1Cl . Output IC50: 100 to 1000 nM

Input CCN(CC)CCOc1ccc(Nc2ncc3c(=O)n(-c4c(Cl)cccc4Cl)ccc3n2)cc1 . Output IC50: 100 to 1000 nM

Input CC(=O)N1CCN(c2ccc(Nc3ncc4c(=O)n(-c5c(Cl)cccc5Cl)ccc4n3)cc2)CC1 . Output IC50: 100 to 1000 nM

Input Cc1cc(Nc2ncc3c(=O)n(-c4c(Cl)cccc4Cl)cc(C#CCO)c3n2)ccc1N1CCNCC1 . Output IC50: ≤ 100 nM

Input Cc1cc(Nc2ncc3c(=O)n(-c4c(Cl)cccc4Cl)ccc3n2)ccc1N1CCNCC1 . Output IC50: ≤ 100 nM
